- Assay system: T1, Max 37-83 (Homo sapiens, UniProt P61244)
- T1 chain: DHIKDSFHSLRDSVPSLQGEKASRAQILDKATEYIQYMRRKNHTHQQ
- Experiment notes: single-molecule SiNW-FET electrical recording (pH 7.4, 37 °C)
Attribute measured: Kd

Data request, read-out Kd, for KRRTHNVLERQRRNELKRSFFALRDQIPELENNEKAPKVVILKKA (C-terminal cysteine added to c-Myc, immobilized on nanowire) [c-Myc 370-414]
205 nM
